Structures can show the parent of a compound that is named as a salt.
METRIC_NAME: melting point

Look over these answered cases.
[[record]]
compound = "Cc1ccc(-c2cc3c(=O)n(-c4ccc5c(cnn5CCN5CCCC5)c4)ccc3o2)nn1.Cl"
metric_name = "melting point"
measured_value = "282 to 284 °C"

[[record]]
compound = "O=c1c2cc(-c3ccc(F)cn3)oc2ccn1-c1ccc2c(cnn2CCN2CCCC2)c1 (as salt: hydrochloride) [Example 23, dihydrochloride]"
metric_name = "melting point"
measured_value = "266 to 268 °C"


Look at each compound and report its melting point.
1. Cl.O=c1c2cc(-c3ccc(Cl)cc3)oc2ccn1-c1ccc2c(cnn2CCN2CCOCC2)c1
2. COc1cc(Cl)ccc1-c1cc2c(=O)n(-c3ccc4c(cnn4CCN4CCCC4)c3)ccc2o1.Cl

1. 260 to 268 °C (dec.)
2. 240 to 242 °C

----------
METRIC_NAME: melting point

[[record]]
molecule_smiles = "Cl.O=c1c2cc(-c3ccc(F)cc3)oc2ccn1-c1ccc2c(cnn2CCN2CCCC2)c1"
measured_value = "218 to 220 °C"

[[record]]
molecule_smiles = "Cl.O=c1c2cc(-c3ccc(C(F)(F)F)cc3)oc2ccn1-c1ccc2c(cnn2CCN2CCCC2)c1"
measured_value = "252 to 254 °C"

[[record]]
molecule_smiles = "Cl.N#Cc1cc(F)ccc1-c1cc2c(=O)n(-c3ccc4c(cnn4CCN4CCCC4)c3)ccc2o1"
measured_value = "120 to 122 °C"

[[record]]
molecule_smiles = "Cl.O=c1c2cc(-c3ccccc3Cl)oc2ccn1-c1ccc2c(cnn2CCN2CCCC2)c1"
measured_value = "102 to 104 °C"


Specify measured melting point for Cl.O=c1c2cc(-c3ccc(Cl)cc3)oc2ccn1-c1ccc2c(cnn2CCN2CC[C@@H](O)C2)c1 . 242 to 246 °C (dec.)

----------
Structures can show the parent of a compound that is named as a salt.
For each record, write down the corresponding melting point.

Some solved cases for reference:
[[record]]
molecule = "Cl.O=c1c2cc(-c3ccc(F)cc3F)oc2ccn1-c1ccc2c(cnn2CCN2CCCC2)c1"
metric_name = "melting point"
measured_value = "256 to 258 °C"

[[record]]
molecule = "Cl.O=c1c2cc(-c3ccc(Cl)cc3F)oc2ccn1-c1ccc2c(cnn2CCN2CCCC2)c1"
metric_name = "melting point"
measured_value = "256 to 258 °C"

[[record]]
molecule = "O=c1c2cc(-c3ncccn3)oc2ccn1-c1ccc2c(cnn2CCN2CCCC2)c1 (as salt: hydrochloride) [Example 26, Dihydrochloride]"
metric_name = "melting point"
measured_value = "272 to 274 °C"


Would you kindly look at the next entry?
Read the entry O=c1c2cc(-c3cccnc3)oc2ccn1-c1ccc2c(cnn2CCN2CCCC2)c1 (as salt: hydrochloride) [Example 22, dihydrochloride] and write its reported melting point. 188 to 190 °C
